# target.entity: BRAF V600E (Homo sapiens, UniProt P15056+Q96SW2, V600E)
# Construct: knock-in of the HiBiT tag to the endogenous BRAF V600E locus; host or cells: A375.10 (A375 clonal line, CRISPR HiBiT knock-in at the endogenous BRAF V600E locus)
# Sequence (P15056 whole entry V600E): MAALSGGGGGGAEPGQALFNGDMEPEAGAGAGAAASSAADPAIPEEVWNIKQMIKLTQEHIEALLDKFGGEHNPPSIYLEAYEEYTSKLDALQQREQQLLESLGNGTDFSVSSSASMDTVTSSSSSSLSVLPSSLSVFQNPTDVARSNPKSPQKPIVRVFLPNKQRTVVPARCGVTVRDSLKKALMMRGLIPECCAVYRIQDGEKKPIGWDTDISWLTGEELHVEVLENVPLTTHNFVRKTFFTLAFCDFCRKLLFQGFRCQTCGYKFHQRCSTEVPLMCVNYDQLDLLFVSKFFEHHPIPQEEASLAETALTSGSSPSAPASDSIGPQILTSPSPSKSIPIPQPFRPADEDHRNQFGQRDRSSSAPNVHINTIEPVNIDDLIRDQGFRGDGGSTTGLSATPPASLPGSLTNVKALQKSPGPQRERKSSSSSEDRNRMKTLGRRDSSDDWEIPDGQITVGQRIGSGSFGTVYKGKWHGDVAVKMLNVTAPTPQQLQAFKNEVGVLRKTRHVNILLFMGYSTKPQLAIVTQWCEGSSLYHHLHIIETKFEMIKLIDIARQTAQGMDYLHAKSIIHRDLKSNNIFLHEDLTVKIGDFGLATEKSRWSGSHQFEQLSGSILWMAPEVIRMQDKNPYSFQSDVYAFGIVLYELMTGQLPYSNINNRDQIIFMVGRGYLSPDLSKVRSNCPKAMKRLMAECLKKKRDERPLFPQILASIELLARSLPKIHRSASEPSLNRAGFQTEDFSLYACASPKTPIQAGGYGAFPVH
# Sequence (Q96SW2 whole entry): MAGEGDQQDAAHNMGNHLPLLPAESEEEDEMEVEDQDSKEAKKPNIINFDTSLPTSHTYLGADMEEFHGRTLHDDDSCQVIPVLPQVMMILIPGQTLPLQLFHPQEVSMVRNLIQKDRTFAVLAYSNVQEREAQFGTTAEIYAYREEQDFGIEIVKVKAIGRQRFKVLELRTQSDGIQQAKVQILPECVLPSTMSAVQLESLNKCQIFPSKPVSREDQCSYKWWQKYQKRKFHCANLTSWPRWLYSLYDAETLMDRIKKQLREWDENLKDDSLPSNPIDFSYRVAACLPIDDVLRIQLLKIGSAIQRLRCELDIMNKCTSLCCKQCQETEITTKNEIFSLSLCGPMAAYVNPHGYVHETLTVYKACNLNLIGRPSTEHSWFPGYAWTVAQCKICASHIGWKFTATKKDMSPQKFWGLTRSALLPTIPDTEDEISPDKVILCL
# Sequence (Q16531 whole entry partner): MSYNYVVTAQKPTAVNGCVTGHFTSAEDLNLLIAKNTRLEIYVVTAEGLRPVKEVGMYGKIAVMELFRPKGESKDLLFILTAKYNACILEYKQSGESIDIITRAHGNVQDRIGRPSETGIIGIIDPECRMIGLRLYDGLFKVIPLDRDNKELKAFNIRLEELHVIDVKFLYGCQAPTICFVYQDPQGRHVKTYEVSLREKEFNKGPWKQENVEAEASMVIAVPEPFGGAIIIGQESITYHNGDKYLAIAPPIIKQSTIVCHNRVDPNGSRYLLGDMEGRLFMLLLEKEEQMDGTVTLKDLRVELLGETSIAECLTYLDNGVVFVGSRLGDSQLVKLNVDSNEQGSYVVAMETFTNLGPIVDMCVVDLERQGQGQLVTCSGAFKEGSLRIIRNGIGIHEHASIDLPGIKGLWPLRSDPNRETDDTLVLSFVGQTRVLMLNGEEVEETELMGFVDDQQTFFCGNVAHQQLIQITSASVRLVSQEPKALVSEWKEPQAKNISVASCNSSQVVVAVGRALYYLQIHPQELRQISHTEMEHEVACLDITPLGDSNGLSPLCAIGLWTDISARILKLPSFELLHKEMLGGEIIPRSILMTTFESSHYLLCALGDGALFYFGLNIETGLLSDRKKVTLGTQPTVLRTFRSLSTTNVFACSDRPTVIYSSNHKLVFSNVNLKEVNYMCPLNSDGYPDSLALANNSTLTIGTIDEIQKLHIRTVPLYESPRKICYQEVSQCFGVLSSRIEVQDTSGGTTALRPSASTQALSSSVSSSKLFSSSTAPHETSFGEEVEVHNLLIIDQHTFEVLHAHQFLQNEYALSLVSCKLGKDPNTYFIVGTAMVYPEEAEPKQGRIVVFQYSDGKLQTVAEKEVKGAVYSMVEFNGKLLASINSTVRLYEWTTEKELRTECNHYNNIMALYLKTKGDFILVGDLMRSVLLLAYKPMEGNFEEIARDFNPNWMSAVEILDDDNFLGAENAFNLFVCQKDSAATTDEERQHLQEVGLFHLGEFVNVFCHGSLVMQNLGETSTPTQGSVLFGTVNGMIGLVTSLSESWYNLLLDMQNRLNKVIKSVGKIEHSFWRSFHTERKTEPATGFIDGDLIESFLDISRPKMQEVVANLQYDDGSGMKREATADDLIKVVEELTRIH
# method.description: BRAF V600E HiBiT Degradation Assay
# Format: cell-based
# experimental.setup: A375.10 cells, BRAF V600E, 2 hours; read-out: HiBiT-Degradation A375.10 BRAF 2 hours DC50
recorded.endpoint: DC50

[[record]]
compound = "CCN(C)S(=O)(=O)Nc1ccc(F)c(Oc2ccc3ncc(OCC4(F)CCN(C5CCC(c6cc7c(cc6F)c(N6CCC(=O)NC6=O)nn7C)CC5)CC4)nc3c2)c1C#N (single isomer, unassigned) [Compound 229]"
recorded_endpoint = "DC50"
recorded_measurement = "< 1000 nM"

[[record]]
compound = "CCN(C)S(=O)(=O)Nc1ccc(F)c(Oc2ccc3ncn([C@H]4COC5(CCN(CC6CN(c7cc8c(cc7F)c(N7CCC(=O)NC7=O)nn8C)C6)CC5)C4)c(=O)c3c2)c1C#N"
recorded_endpoint = "DC50"
recorded_measurement = "< 1000 nM"

[[record]]
compound = "CO[C@H]1CCN(S(=O)(=O)Nc2ccc(F)c(Oc3ccc4ncn([C@H]5COC6(CCN(C7CCC(c8cc9c(cc8F)c(N8CCC(=O)NC8=O)nn9C)CC7)CC6)C5)c(=O)c4c3)c2C#N)C1 (single isomer, unassigned)"
recorded_endpoint = "DC50"
recorded_measurement = "< 1000 nM"

[[record]]
compound = "N#Cc1c(NS(=O)(=O)N2CC[C@@H](F)C2)ccc(F)c1Oc1ccc2ncn(C3COC4(CCN(C5CCC(c6ccc(NC7CCC(=O)NC7=O)cc6F)CC5)CC4)C3)c(=O)c2c1 (single isomer, unassigned)"
recorded_endpoint = "DC50"
recorded_measurement = "< 1000 nM"

[[record]]
compound = "CCN(C)S(=O)(=O)Nc1ccc(F)c(Oc2ccc3ncn(C4CC5(CCN(C6CC7(C6)CN(c6ccc(NC8CCC(=O)NC8=O)cc6F)C7)CC5)C4)c(=O)c3c2)c1F (stereo not drawn)"
recorded_endpoint = "DC50"
recorded_measurement = "< 1000 nM"


Any idea what its DC50 is? The compound is CCN(C)S(=O)(=O)Nc1ccc(F)c(Nc2ccc3ncn([C@@H]4COC5(CCN(C6CCC(c7cc8c(cc7F)c(N7CCC(=O)NC7=O)nn8C)CC6)CC5)C4)c(=O)c3c2F)c1C#N (single isomer, unassigned) [Compound 68]
< 1000 nM

Param item = CN(CCO)S(=O)(=O)Nc1ccc(F)c(Oc2ccc3ncc([C@@H]4COC5(CCN(C6CCC(c7cc8c(cc7F)c(N7CCC(=O)NC7=O)nn8C)CC6)CC5)C4)nc3c2)c1C#N (single isomer, unassigned) ; retrieve measured DC50.
< 1000 nM

Form field: reported DC50 of CCN(C)S(=O)(=O)Nc1ccc(F)c(Oc2ccc3ncn([C@H]4COC5(CCC(N6CC7(CN(c8ccc(NC9CCC(=O)NC9=O)cc8F)C7)C6)CC5)C4)c(=O)c3c2)c1C#N (single isomer, unassigned) [Compound 192]
< 1000 nM

Which DC50 value belongs to CC(C)S(=O)(=O)Nc1ccc(F)c(Oc2ccc3ncc(C4CC5(CCN(C6CCC(c7cc8c(cc7F)c(N7CCC(=O)NC7=O)nn8C)CC6)CC5)C4)nc3c2)c1C#N (single isomer, unassigned) [Compound 249] ?
< 1000 nM
